- Target Under Test: Tyrosine-protein phosphatase non-receptor type 1 (Homo sapiens)
- Sequence (P18031 whole entry): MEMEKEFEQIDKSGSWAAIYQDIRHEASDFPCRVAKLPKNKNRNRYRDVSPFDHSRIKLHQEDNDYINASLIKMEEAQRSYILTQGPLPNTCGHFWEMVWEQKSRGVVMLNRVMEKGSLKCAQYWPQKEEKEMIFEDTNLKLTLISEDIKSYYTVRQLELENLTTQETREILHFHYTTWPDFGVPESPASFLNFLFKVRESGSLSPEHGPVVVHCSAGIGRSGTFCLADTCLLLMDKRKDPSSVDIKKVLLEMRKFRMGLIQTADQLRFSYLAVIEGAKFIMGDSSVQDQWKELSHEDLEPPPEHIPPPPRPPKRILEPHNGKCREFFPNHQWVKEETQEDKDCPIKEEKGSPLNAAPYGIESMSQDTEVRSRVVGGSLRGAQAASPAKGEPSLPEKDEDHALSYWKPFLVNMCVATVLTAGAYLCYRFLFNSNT
Ok so here's the combined literature set: IC50 for Tyrosine-protein phosphatase non-receptor type 1 (Homo sapiens).
Measure Name: IC50 (µM)

Past entries and their recorded results:
| Molecule | Target Under Test | Unit Of Measure | IC50 |
| --- | --- | --- | --- |
| O=P(O)(O)C(F)c1ccc2ccc(C(F)P(=O)(O)O)cc2c1 (configuration not stated) | Tyrosine-protein phosphatase non-receptor type 1 (Homo sapiens) | µM | 130 |
| C[C@H](CCC(=O)O)[C@H]1CC[C@H]2[C@@H]3CC=C4C(C)(C)C(=O)CC[C@]4(C)[C@H]3CC[C@]12C | Tyrosine-protein phosphatase non-receptor type 1 (Homo sapiens) | µM | 13.2 |
| CN(C)S(=O)(=O)c1ccc(CN(Cc2ccc(C(F)(F)P(=O)(O)O)cc2)S(=O)(=O)c2ccc(OCC(=O)O)cc2)cc1 | Tyrosine-protein phosphatase non-receptor type 1 (Homo sapiens) | µM | 1.1 |
| CCCCCCCCCCCCCCCC(=O)OC1=CC(=O)OC(COCc2ccccc2)C1 (configuration not stated) | Tyrosine-protein phosphatase non-receptor type 1 (Homo sapiens) | µM | 8.2 |
| O=Cc1ccc(/C=C/c2ccc(O)c(O)c2)cc1 | Tyrosine-protein phosphatase non-receptor type 1 (Homo sapiens) | µM | 101 |
| CNc1nc(N)nc2nc(-c3ccccc3[N+](=O)[O-])ccc12 | Tyrosine-protein phosphatase non-receptor type 1 (Homo sapiens) | µM | 1.37 |

(P) C/C=C/C=C(\C)C(=O)N1Cc2cc(OCCc3nc(/C=C/CCC(C)C)oc3C)ccc2C[C@H]1C(=O)O.CC(C)(C)N
(Q) COc1ccc(C2CC(c3ccc4occc4c3OC)=NO2)cc1 (configuration not stated)
(R) O=C1NC(=O)/C(=C\c2ccc(OCc3ccc(F)cc3)c(Br)c2)S1
Reorder the items by IC50, least to greatest. In plain terms: list the labels in the order you were asked to.
P, R, Q

(A) CC(C)=CCc1cc(C(=O)CC(=O)c2cc(CC=C(C)C)c(O)cc2O)ccc1O
(B) O=C(O)c1cc(Br)cc(Cc2cc(Br)cc(C(=O)O)c2O)c1O
(C) CO[C@H]1OC[C@]23CCC[C@]1(C)[C@@H]2CC[C@]1(C)[C@@H]3CC[C@]2(C)Oc3ccccc3C[C@@H]12
Your job: order these 3 records by IC50, ascending. // rank by listing labels in the order requested
C, A, B

* * *

- Target Under Test: Tyrosine-protein phosphatase non-receptor type 1 (Homo sapiens)
- Sequence (P18031 whole entry): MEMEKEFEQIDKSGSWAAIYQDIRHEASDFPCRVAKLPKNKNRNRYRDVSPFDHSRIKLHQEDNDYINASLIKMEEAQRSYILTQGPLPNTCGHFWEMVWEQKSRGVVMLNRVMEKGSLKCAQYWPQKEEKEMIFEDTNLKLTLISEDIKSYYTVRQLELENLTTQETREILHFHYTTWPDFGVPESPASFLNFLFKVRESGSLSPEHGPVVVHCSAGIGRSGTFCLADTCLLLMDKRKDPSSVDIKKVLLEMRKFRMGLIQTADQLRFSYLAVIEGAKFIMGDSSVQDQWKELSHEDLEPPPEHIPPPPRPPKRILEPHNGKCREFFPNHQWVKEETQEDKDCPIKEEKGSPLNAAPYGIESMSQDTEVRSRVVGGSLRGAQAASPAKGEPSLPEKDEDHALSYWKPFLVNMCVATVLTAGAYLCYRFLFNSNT
pIC50: −log10 of the molar value.
Here is a set of compounds with reported pIC50 for Tyrosine-protein phosphatase non-receptor type 1 (Homo sapiens), compiled from the literature.
Measure Name: pIC50

Example results:
| Compound | pIC50 |
| --- | --- |
| C[C@]1(CO)CCC[C@@]2(CO)[C@H]1CC[C@]1(C)[C@@H]2CC[C@]2(C)Oc3ccc(O)cc3C[C@@H]12 | 4.83 |
| O=C1CC(c2ccc(CC(NS(=O)(=O)c3cccc(Cl)c3)c3nc4ccccc4[nH]3)cc2)S(=O)(=O)N1 (stereo not drawn) | 7.22 |
| COc1ccccc1C(=O)Nc1nnc(-c2ccc(Oc3ccc([N+](=O)[O-])cc3[N+](=O)[O-])cc2)s1 | 5.42 |

(I) O=C1CC(c2ccc(CC(NS(=O)(=O)c3cccc(F)c3)c3ncc(CCCCc4ccccc4)[nH]3)cc2)S(=O)(=O)N1 (stereo not drawn)
(II) COC(=O)[C@H](Cc1ccccc1)Oc1ccc(-c2ccc(-c3c(Cc4ccccc4)oc4ccccc34)cc2)cc1
# returns the entry with the larger pIC50; inputs I and II Identify your pick by its label.
I

(1) O=C(O)COc1ccc(S(=O)(=O)N(Cc2ccc(-c3csnn3)cc2)Cc2ccc3oc(C(=O)O)cc3c2)cc1
(2) O=C(O)[C@H](Cc1ccccc1)Oc1ccc(-c2ccc(-c3c(Cc4ccccc4)sc4ccccc34)cc2)cc1-c1ccc(Cl)cc1
Hi, I'm comparing two records. Which one has the lower pIC50, 1 or 2 ? Your choice should be expressed through its label.
1
(1: 4.54, 2: 7.28)

(I) COc1ccc2c3ccn(C)c4cc(=O)c(=O)n(c3-4)c2c1
(II) Nc1ccc(-c2nc(-c3ccc4oc5c(C(=O)O)cccc5c4c3)cs2)cc1
(III) O=c1oc(/C=C/c2ccc(O)c(O)c2)cc(O)c1-c1cc(O)c(O)cc1/C=C/c1cc2oc(=O)c3cc(O)c(O)cc3c2c(=O)o1
(IV) O=C(O)COc1ccc(S(=O)(=O)N(Cc2ccc(-c3csnn3)cc2)Cc2ccc(OCC(=O)O)c(Cl)c2)cc1
(V) CC(C)(C)N.Cc1oc(/C=C/CCC(C)C)nc1CCOc1ccc2c(c1)CN(C(=O)/C=C/C1CC1)[C@H](C(=O)O)C2
Arrange these compounds by their pIC50, starting with the largest number. Sort the labels as requested; that list is your answer.
II, V, III, I, IV
(II: 6.73, V: 5.98, III: 5.52, I: 4.72, IV: 4.24)

* * *

Please find below IC50 data on Tyrosine-protein phosphatase non-receptor type 1 (Homo sapiens, UniProt P18031) compiled from the literature.

| Compound | Target Under Test | Result |
| --- | --- | --- |
| O=C1CN(c2c(O)cc3ccc(-c4cnn(CC5CC5)c4)cc3c2F)S(=O)(=O)N1 | Tyrosine-protein phosphatase non-receptor type 1 (Homo sapiens, UniProt P18031) | < 0.001 µM |
| O=C1CN(c2c(O)cc3ccc(OCC4CCCOC4)cc3c2F)S(=O)(=O)N1 (centres undefined) | Tyrosine-protein phosphatase non-receptor type 1 (Homo sapiens, UniProt P18031) | > 0.1 µM |
| OC[C@H]1O[C@@H](Oc2c(O)cc(O)cc2/C=C/c2ccc(O)cc2)[C@H](O)[C@@H](O)[C@@H]1O | Tyrosine-protein phosphatase non-receptor type 1 (Homo sapiens, UniProt P18031) | > 50 µM |

From here, focus on the item given below.
// lookup IC50 | system=Tyrosine-protein phosphatase non-receptor type 1 (Homo sapiens, UniProt P18031) | key= `COc1cc(O)c(C(C)=O)c(O)c1C`
> 200 µM

* * *

Here we gather IC50 data for Tyrosine-protein phosphatase non-receptor type 1 (Homo sapiens, UniProt P18031) reported by several publications.

| Molecule | IC50 |
| --- | --- |
| O=C(O)c1coc2ccccc2c1=O | > 1000 µM |
| CCCCCCCCCCCCCCCC(NCc1cccc(N(C)C)c1)=C1C(=O)OC(CO)C1=O (mixture of isomers) | > 100 µM |

Moving on to another molecule below.
Tell me reported IC50 for `Cc1cc(Cc2cc(C)c(O)c(C(=O)O)c2)cc(C(=O)O)c1O` , tested with Tyrosine-protein phosphatase non-receptor type 1 (Homo sapiens, UniProt P18031).
> 1000 µM

* * *

Endpoint summary: IC50, system: Tyrosine-protein phosphatase non-receptor type 1 (Homo sapiens, UniProt P18031), multiple sources combined.
Measure Name: IC50 (µM)

Worked set:
| Compound | IC50 / µM |
| --- | --- |
| CC1(C)CC[C@]2(C(=O)O)CC[C@]3(C)C(=CC[C@@H]4[C@@]5(C)Cc6sc(N)nc6C(C)(C)[C@@H]5CC[C@]43C)[C@@H]2C1 | 1.92 |
| O=C1CC(c2ccc(CC(NS(=O)(=O)c3ccccc3Br)c3nc4ccccc4[nH]3)cc2)S(=O)(=O)N1 (stereo not given) | 0.17 |
| CCOP(=O)(O)C(N[C@@H](CO)C(=O)O)c1ccccc1O (stereo not given in full) | 135 |
| N#C/C(=C\c1ccc(-c2ccccc2C(=O)O)o1)C(=O)Nc1ccc2ccccc2c1 | 27 |
| O=C(Nc1ccc(-c2ccc(NC(=O)C3CCCCC3)cn2)cc1)C1CCCCC1 | 7.14 |

(a) Cc1ccc2[nH]c(C(Cc3ccc(C4CC(=O)NS4(=O)=O)cc3)NS(=O)(=O)c3ccc(-c4ccccc4)cc3)nc2c1 (stereo not given)
(b) CC(C)=C1CC([C@H]2CC[C@]3(C)[C@@H]2CC[C@@H]2C4=C(CC[C@]23C)C(C)(C)[C@@H]2CC[C@H]4O2)=CC1=O
Quick check, higher IC50 between a and b ? Record your answer as the label of the chosen record.
b
(b: 24.5 µM, a: 0.14 µM)
